Target desc: human Akt1 kinase (kinase domain residues R144-A480, activated with PDK1) (Homo sapiens)
Sequence (P31749 144-480): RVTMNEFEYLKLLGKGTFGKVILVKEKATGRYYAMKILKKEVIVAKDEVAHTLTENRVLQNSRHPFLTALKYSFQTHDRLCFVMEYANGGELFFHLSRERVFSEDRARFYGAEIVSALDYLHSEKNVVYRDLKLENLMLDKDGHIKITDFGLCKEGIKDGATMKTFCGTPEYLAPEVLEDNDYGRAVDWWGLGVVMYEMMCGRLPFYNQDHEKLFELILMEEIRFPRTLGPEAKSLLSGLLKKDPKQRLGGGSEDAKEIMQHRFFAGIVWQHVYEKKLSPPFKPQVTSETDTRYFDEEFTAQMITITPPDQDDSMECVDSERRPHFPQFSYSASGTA
Experiment summary: Akt1 kinase assay, Luciferase-Coupled Chemiluminescent Kinase assay (LCCA)
Condition set: 1 μM ATP, 1.3 nM Akt1; read-out: Akt-1 inhibition IC50
Readout: IC50

Illustrative cases are given below, each with its answer.
compound="CN(Cc1ccco1)C(c1ccc(F)cc1)C1CCN(c2ncnc3[nH]nc(Br)c23)CC1 (centres unmarked) [Entry 96]" measured_result="500 to 2000 nM"
compound="Brc1n[nH]c2ncnc(N3CCN(CCCN4CCCC4)CC3)c12 [Entry 69]" measured_result="> 2000 nM"
compound="CN(C)CCOC(c1ccc(F)cc1)C1CCN(c2ncnc3[nH]nc(Br)c23)CC1 (centres unmarked) [Entry 25]" measured_result="< 50 nM"

Dear colleague, please send me the reported IC50 for Brc1ccccc1CN1CCN(c2ncnc3[nH]nc(Br)c23)CC1 [Entry 45] when you can.
> 2000 nM

Dear colleague, please send me the reported IC50 for CN(C)C(=O)CN1CCN(c2ncnc3[nH]nc(Br)c23)CC1 [Entry 85] when you can.
> 2000 nM
